Measured values drawn from the supplement of paper PMC5412046 for this set.

# System: SB.mhdgc-1
# method_summary: area under the dose-response curve of % viability (trapezoidal, 11 doses) (% viability x log10 concentration); higher = less cytotoxic
# condition_info: SB.mhdgc-1 (hereditary c.1380delA CDH1 gastric cancer)
Values of area under the dose-response curve greater than or equal to 500 map to YES; values below map to NO.

compound	assigned_class
C[S+](=O)([O-])Oc1ccc2c(NC(N)=O)c(C(=O)c3ccc(Cl)cc3Cl)oc2c1 [Lirimilast] (top concentration 46.0829 µM)	NO
O=C1CCCC(=O)C1C(=O)c1ccc(C(F)(F)F)cc1[N+](=O)[O-] [Nitisinone] (top concentration 46.0829 µM)	YES
O=C([O-])C(O)Cc1ccc(O)c(O)c1 (configuration not stated) [Sodium Danshensu] (top concentration 46.0829 µM)	YES
CCCCOc1ccc(C(=O)Nc2ccc(F)cc2F)cc1 (top concentration 46.0829 µM)	YES
C=C1C(=O)OC2/C=C(/C)CC/C=C(/C)CCC12 (configuration not stated) [Costunolide] (top concentration 46.0829 µM)	NO
CNC[C@H](O)c1ccc(O)c(O)c1 [Epinephrine] (top concentration 92.1659 µM)	NO
O=C(Nc1cccc(Cl)c1)Nc1ncc(CCNc2ncnc3ccsc23)s1 [SNS-314] (top concentration 46.0829 µM)	NO
